Test: Selectivity index, ratio of IC50 for human THP1 cells to IC50 for intracellular amastigote form of Leishmania infantum MON 235
Format: toxicity, cell-based, THP-1
Conditions: read-out: Ratio IC50

SMILES_CODE: C[N+]1(C)C2CCC1CC(=CCOP(=O)([O-])OCCCCCCCCCCC=C1C3CC4CC(C3)CC1C4)C2
selectivity ratio: 16.2

SMILES_CODE: C[N+](C)(C)CCOP(=O)([O-])OCCCCCCCCCCC=C1C2CC3CC(C2)CC1C3
selectivity ratio: 1920

SMILES_CODE: CCCCCCCCCCCCCCCCOP(=O)([O-])OCC[N+](C)(C)C
selectivity ratio: 8.7

SMILES_CODE: C[N+](C)(C)[C@H]1CCCC[C@@H]1OP(=O)([O-])OCCCCCCCCCCC=C1C2CC3CC(C2)CC1C3
selectivity ratio: 49.6

SMILES_CODE: C[N+](C)(C)CC#CCOP(=O)([O-])OCCCCCCCCCCC=C1C2CC3CC(C2)CC1C3
selectivity ratio: 14.5

SMILES_CODE: C[N+](C)(C)[C@H]1CCC[C@@H]1OP(=O)([O-])OCCCCCCCCCCC=C1C2CC3CC(C2)CC1C3
selectivity ratio: 250

SMILES_CODE: C[N+]1(CCOP(=O)([O-])OCCCCCCCCCCC=C2C3CC4CC(C3)CC2C4)CCCCC1
selectivity ratio: 29.6

SMILES_CODE: C[N+]1(CCOP(=O)([O-])OCCCCCCCCCCC=C2C3CC4CC(C3)CC2C4)CCOCC1
selectivity ratio: 27.9

---

Tested on: THP-1
Test: Cytotoxicity against human THP1 cells using propidium iodide and SYBR-14 staining after 72 hrs by flow cytometry
Assay type: cell-based
Conditions: THP-1, 72 h
Entries and their IC50
MEASURED_PARAMETER: IC50 (µM)

SMILES_CODE: CCCCCCCCCCCCOCCC12CC3CC(C1)CC(CCOP(=O)([O-])OCC[N+](C)(C)C)(C3)C2
VALUE_PREFIX: =
RESULT: 21.4
--
SMILES_CODE: CCCCCCCCCCOCCC12CC3CC(C1)CC(CCOP(=O)([O-])OCC[N+](C)(C)C)(C3)C2
VALUE_PREFIX: =
RESULT: 18.4
--
SMILES_CODE: CCCCCCCCOCCC12CC3CC(C1)CC(CCOP(=O)([O-])OCC[N+](C)(C)C)(C3)C2
VALUE_PREFIX: >
RESULT: 50
--
SMILES_CODE: C[N+](C)(C)CCOP(=O)([O-])OCCC12CC3CC(CC(CCOCc4ccccc4)(C3)C1)C2
VALUE_PREFIX: >
RESULT: 50
--
SMILES_CODE: C[N+](C)(C)[C@H]1CCCC[C@@H]1OP(=O)([O-])OCCCCCCCCCCC=C1C2CC3CC(C2)CC1C3
VALUE_PREFIX: =
RESULT: 39.7
--
SMILES_CODE: CCCCOCCC12CC3CC(C1)CC(CCOP(=O)([O-])OCC[N+](C)(C)C)(C3)C2
VALUE_PREFIX: >
RESULT: 50
--
SMILES_CODE: CCCCCCOCCC12CC3CC(C1)CC(CCOP(=O)([O-])OCC[N+](C)(C)C)(C3)C2
VALUE_PREFIX: >
RESULT: 50
--
SMILES_CODE: C[N+](C)(C)[C@H]1CCC[C@@H]1OP(=O)([O-])OCCCCCCCCCCC=C1C2CC3CC(C2)CC1C3
VALUE_PREFIX: =
RESULT: 75
